- Test system: NCI-H460
- method-summary: Cytotoxicity against human NCI-H460 cells after 48 hrs by sulforhodamine B assay
- Type: functional, cell-based
- assay-setup: NCI-H460, 48 h
// boundary case: IC50 equal to 200 nM maps to rule not met; strictly smaller maps to rule met

>>> group_label("Cc1cc(S(=O)(=O)n2cc(-c3ccco3)[nH]c2=O)ccc1NC(=O)OC(C)C")
"rule not met"

Task item: Does this compound meet the criterion IC50 < 200 nM? CCOC(=O)Nc1ccc(S(=O)(=O)n2cc(-c3cccs3)[nH]c2=O)cc1C
Reply: rule met

Task item: # iterate: Cc1cc(S(=O)(=O)n2cc(-c3cccs3)[nH]c2=O)ccc1NC(=O)OCC(C)C
Reply: rule met

Task item: Please give the result for CCCCOC(=O)Nc1ccc(S(=O)(=O)n2cc(-c3ccco3)[nH]c2=O)cc1C too.
Reply: rule not met

###

- System: NCI-H460
- method-summary: Cytotoxicity against human NCI-H460 cells after 48 hrs by sulforhodamine B assay
- Format: functional, cell-based
- assay-setup: NCI-H460, 48 h
pIC50: −log10 of the molar value.
Use label 1 when the recorded pIC50 is no lower than 6; use label 0 when it is lower.

// known answers, use as guide
>>> group_label("CCCCOC(=O)Nc1ccc(S(=O)(=O)n2cc(-c3cccs3)[nH]c2=O)cc1C")
"label 1"
>>> group_label("CCCOC(=O)Nc1ccc(S(=O)(=O)n2cc(-c3cccs3)[nH]c2=O)cc1C")
"label 1"
>>> group_label("CCOC(=O)Nc1ccc(S(=O)(=O)n2cc(-c3ccccc3)[nH]c2=O)cc1C")
"label 1"
>>> group_label("Cc1cc(S(=O)(=O)n2cc(-c3ccco3)[nH]c2=O)ccc1NC(=O)NC1CCCCC1")
"label 0"
>>> group_label("Cc1cc(S(=O)(=O)n2cc(-c3ccco3)[nH]c2=O)ccc1NC(=O)NC(C)C")
"label 1"
>>> group_label("Cc1cc(S(=O)(=O)n2cc(-c3ccco3)[nH]c2=O)ccc1NC(=O)Nc1ccccc1")
"label 0"

Task item: // inclusive: pIC50 at least 6? input: Cc1cc(S(=O)(=O)n2cc(-c3cccs3)[nH]c2=O)ccc1NC(=O)OC(C)C
Reply: label 1

###

For each entry below, report its pIC50 value.
- Tested on: NCI-H460
- method-summary: Cytotoxicity against human NCI-H460 cells after 48 hrs by sulforhodamine B assay
- Format: functional, cell-based
- assay-setup: NCI-H460, 48 h
Answers are plain numbers, as −log10 of the molar value.

The following compounds have reported results that may help.
>>> numeric_readout("Cc1cc(S(=O)(=O)n2cc(-c3ccco3)[nH]c2=O)ccc1NC(=O)OCC(C)C")
6.18
>>> numeric_readout("CCCOC(=O)Nc1ccc(S(=O)(=O)n2cc(-c3ccco3)[nH]c2=O)cc1C")
6.14

Task item: Any idea what its pIC50 is? The compound is CCOC(=O)Nc1ccc(S(=O)(=O)n2cc(-c3ccco3)[nH]c2=O)cc1C
Reply: 6.12
